test: Apparent volume of distribution at steady state in BALB/c mouse at 50 mg/kg, iv after 5 to 24 hrs by LC-MS/MS analysis; format: ADME, organism-based; details: in vivo, read-out: Vdss(app)
measured metric: Vd

# example entries with known answers
INPUT: Bench note: what Vd did CCc1c2c(nc3ccc(OC(=O)N4CCC(NC(=O)c5noc(-c6cc(C(C)C)c(O)cc6O)c5-c5ccc(CN6CCOCC6)cc5)CC4)cc13)-c1cc3c(c(=O)n1C2)COC(=O)[C@]3(O)CC show?
OUTPUT: 0.103 L/kg

INPUT: CCc1c2c(nc3ccc(O)cc13)-c1cc3c(c(=O)n1C2)COC(=O)[C@@]3(CC)OC(=O)CCNC(=O)c1noc(-c2cc(C(C)C)c(O)cc2O)c1-c1ccc(CN2CCOCC2)cc1 , same question.
OUTPUT: 0.1 L/kg

Now look at this one.
INPUT: Bench note: what Vd did CCc1c2c(nc3ccc(O)cc13)-c1cc3c(c(=O)n1C2)COC(=O)[C@@]3(CC)OC(=O)CNC(=O)c1noc(-c2cc(C(C)C)c(O)cc2O)c1-c1ccc(CN2CCOCC2)cc1 show?
OUTPUT: 0.101 L/kg

* * *

experiment: Stability of compound in PBS buffer assessed as drug degradation at 50 uM at pH 7.4 measured after 12 hrs by HPLC analysis; assay type: physicochemical; details: read-out: Drug degradation
measured metric: degraded at 12 h, 50 µM (%)
Supply the numeric figure in %, leaving out any unit text.

INPUT: Bench note: what degraded at 12 h, 50 µM did CCc1c2c(nc3ccc(O)cc13)-c1cc3c(c(=O)n1C2)COC(=O)[C@@]3(CC)OC(=O)CNC(=O)c1noc(-c2cc(C(C)C)c(O)cc2O)c1-c1ccc(CN2CCOCC2)cc1 show?
OUTPUT: 75

* * *

assay: Half life in human liver microsomes at 1 uM preincubated for 5 mins followed by NADPH addition and measured up to 360 mins by LC-MS/MS analysis; type: ADME, Microsome
measured metric: half-life at 1 µM
Provide the measurement as a number trailed by its unit.

# example entries with known answers
INPUT: Bench note: what half-life at 1 µM did CCc1c2c(nc3ccc(OC(=O)N4CCC(NC(=O)c5noc(-c6cc(C(C)C)c(O)cc6O)c5-c5ccc(CN6CCOCC6)cc5)CC4)cc13)-c1cc3c(c(=O)n1C2)COC(=O)[C@]3(O)CC show?
OUTPUT: 156 min

INPUT: CCc1c2c(nc3ccc(O)cc13)-c1cc3c(c(=O)n1C2)COC(=O)[C@@]3(CC)OC(=O)CCNC(=O)c1noc(-c2cc(C(C)C)c(O)cc2O)c1-c1ccc(CN2CCOCC2)cc1 , same question.
OUTPUT: 144 min

Now look at this one.
INPUT: Bench note: what half-life at 1 µM did CCc1c2c(nc3ccc(O)cc13)-c1cc3c(c(=O)n1C2)COC(=O)[C@@]3(CC)OC(=O)CNC(=O)c1noc(-c2cc(C(C)C)c(O)cc2O)c1-c1ccc(CN2CCOCC2)cc1 show?
OUTPUT: 126 min

* * *

experiment: Half life in BALB/c mouse at 50 mg/kg, iv after 5 to 24 hrs by LC-MS/MS analysis; type: ADME, organism-based; conditions: in vivo
Documented half-life across a set of compounds
Supply the numeric figure in h, leaving out any unit text.

INPUT: Bench note: what half-life did CCc1c2c(nc3ccc(OC(=O)N4CCC(NC(=O)c5noc(-c6cc(C(C)C)c(O)cc6O)c5-c5ccc(CN6CCOCC6)cc5)CC4)cc13)-c1cc3c(c(=O)n1C2)COC(=O)[C@]3(O)CC show?
OUTPUT: 1.72

New cases:
INPUT: Bench note: what half-life did CCc1c2c(nc3ccc(O)cc13)-c1cc3c(c(=O)n1C2)COC(=O)[C@@]3(CC)OC(=O)CCNC(=O)c1noc(-c2cc(C(C)C)c(O)cc2O)c1-c1ccc(CN2CCOCC2)cc1 show?
OUTPUT: 1.51

INPUT: CCc1c2c(nc3ccc(O)cc13)-c1cc3c(c(=O)n1C2)COC(=O)[C@@]3(CC)OC(=O)CNC(=O)c1noc(-c2cc(C(C)C)c(O)cc2O)c1-c1ccc(CN2CCOCC2)cc1 , same question.
OUTPUT: 1.31
